Biological target: ERα (Homo sapiens, UniProt P03372)
Sequence (P03372 1-595): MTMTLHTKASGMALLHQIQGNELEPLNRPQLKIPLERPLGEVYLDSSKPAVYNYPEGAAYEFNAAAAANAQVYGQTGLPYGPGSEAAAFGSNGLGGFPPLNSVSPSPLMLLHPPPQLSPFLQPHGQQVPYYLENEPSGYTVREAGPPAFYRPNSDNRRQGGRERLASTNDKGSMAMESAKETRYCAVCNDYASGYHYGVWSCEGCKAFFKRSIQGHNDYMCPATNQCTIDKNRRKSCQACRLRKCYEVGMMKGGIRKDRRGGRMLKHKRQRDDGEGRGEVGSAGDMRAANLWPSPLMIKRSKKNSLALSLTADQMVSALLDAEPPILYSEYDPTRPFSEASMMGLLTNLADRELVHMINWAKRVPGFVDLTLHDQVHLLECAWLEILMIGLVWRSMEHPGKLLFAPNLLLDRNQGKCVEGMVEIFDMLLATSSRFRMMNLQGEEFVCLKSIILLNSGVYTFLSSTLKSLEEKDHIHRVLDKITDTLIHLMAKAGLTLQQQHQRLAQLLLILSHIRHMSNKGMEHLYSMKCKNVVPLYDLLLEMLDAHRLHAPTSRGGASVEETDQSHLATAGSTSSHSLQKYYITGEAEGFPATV
Test: ERα degradative activity in T47D cells (western blot, densitometry)
Assay type: cell-based
Design: endogenous in cells; host or cells: T47D
Settings: T47D cell line; concentration at which 50% of the target protein (ERα) is degraded
quantityName: DC50

[Q] Short answer please: DC50, ERα (Homo sapiens, UniProt P03372), entry CC/C(=C(\c1ccccc1)c1ccc(OCCN(C)C(=O)CNc2cccc3c2C(=O)N(C2CCC(=O)NC2=O)C3=O)cc1)c1ccccc1 (stereo not drawn)
[A] > 3000 nM

[Q] Notebook: pull reported DC50 for ERα (Homo sapiens, UniProt P03372), entry CC/C(=C(\c1ccccc1)c1ccc(OCCN(C)C(=O)CCCNc2cccc3c2C(=O)N(C2CCC(=O)NC2=O)C3=O)cc1)c1ccccc1 (stereo not drawn)
[A] ≤ 1500 nM

[Q] For ERα (Homo sapiens, UniProt P03372), provide DC50 of CC/C(=C(\c1ccccc1)c1ccc(OCCN(C)C(=O)CCCCCNc2cccc3c2C(=O)N(C2CCC(=O)NC2=O)C3=O)cc1)c1ccccc1 (stereo not drawn) please.
[A] ≤ 1500 nM

All values here come from patent US11117885B2.
